These measurements were taken from patent US20230398118A1.

test: Pharmacokinetics after single and multiple oral doses
Format: in vivo, human
condition: both sexes, in vivo; human, oral
readout_type: half-life

{"columns": ["molecule_smiles", "readout_type", "endpoint_result"],
 "data": [
  ["COc1cc2c(-c3cnn4cc(N5CCC(N6CCN(C)CC6)CC5)cnc34)ccnc2cc1F", "half-life", "10 to 15 h"]
]}
